- TEST: Cmax in CD-1 mouse at 10 mg/kg, iv by LC-MS/MS analysis
- Type: ADME, organism-based
- Parameters: dose 10 mg/kg, route intravenous
- CONDITION: in vivo
QUANTITY KIND: Cmax

Look at this compound and give its reported Cmax. O=C(O)CCCSc1nnc(-c2ccc(Cl)cc2Cl)o1
35600 ng/mL

* * *

- TEST: Half-life in CD-1 mouse liver microsomes at 1 uM in presence of NADPH by LC-MS/MS analysis
- Format: ADME, Microsome
QUANTITY KIND: t1/2

Please review the entries below; each comes with its answer.
[
  {
    "STRUCTURE AS SMILES": "O=C(O)CCCSc1nnc(-c2ccc(C3CC3)cc2Cl)o1",
    "MEASURED RESULT": "0.783 h"
  },
  {
    "STRUCTURE AS SMILES": "Cc1ccc(-c2nnc(SCCCC(=O)O)o2)c(Cl)c1",
    "MEASURED RESULT": "0.467 h"
  },
  {
    "STRUCTURE AS SMILES": "O=C(O)CCCSc1nnc(-c2ccc(C(F)(F)F)cc2Cl)o1",
    "MEASURED RESULT": "> 1 h"
  },
  {
    "STRUCTURE AS SMILES": "O=C(O)CCCSc1nnc(-c2ccc(OC3CC3)cc2Cl)o1",
    "MEASURED RESULT": "> 1 h"
  },
  {
    "STRUCTURE AS SMILES": "O=C(O)CCCSc1nnc(-c2ccc(Cl)cc2Cl)o1",
    "MEASURED RESULT": "> 1 h"
  }
]

Please look at the following compound next.
Look at this compound and give its reported t1/2. O=C(O)CCSc1nnc(-c2ccc(Cl)cc2Cl)o1
> 1 h

* * *

- TEST: AUC in CD-1 mouse at 30 mg/kg, po by LC-MS/MS analysis
- Type: ADME, organism-based
- CONDITION: in vivo
QUANTITY KIND: AUC
Reply with the number, then its unit.

[
  {
    "STRUCTURE AS SMILES": "O=C(O)CCCSc1nnc(-c2ccc(C3CC3)cc2Cl)o1",
    "AUC": "9500 ng·h/mL"
  }
]

Please look at the following molecule next.
Look at this molecule and give its reported AUC. O=C(O)CCSc1nnc(-c2ccc(Cl)cc2Cl)o1
63200 ng·h/mL

* * *

- Test system: HEK-293T
- TEST: Cytotoxicity against HEK293T cells assessed as reduction in cell viability up to 100 uM by WST-1 assay relative to control
- Assay type: cell-based
- CONDITION: human
Recorded Activity values for a group of compounds are listed next.

Please review the entries below; each comes with its answer.
[
  {
    "STRUCTURE AS SMILES": "Cc1cc(Cl)c(-c2nnc(SCCC(=O)O)o2)cc1C",
    "SUBJECT OF TEST": "HEK-293T",
    "Activity": "< 5%"
  },
  {
    "STRUCTURE AS SMILES": "CC(C)c1ccc(-c2nnc(SCCCC(=O)O)o2)c(Cl)c1",
    "SUBJECT OF TEST": "HEK-293T",
    "Activity": "< 5%"
  },
  {
    "STRUCTURE AS SMILES": "Cc1cc(-c2nnc(SCCC(=O)O)o2)c(Cl)cc1Cl",
    "SUBJECT OF TEST": "HEK-293T",
    "Activity": "< 5%"
  },
  {
    "STRUCTURE AS SMILES": "O=C(O)CCCSc1nnc(-c2ccccc2C(F)(F)F)o1",
    "SUBJECT OF TEST": "HEK-293T",
    "Activity": "< 5%"
  }
]

Look at this compound and give its reported Activity. O=C(O)CCCSc1nnc(-c2ccc(OC3COC3)cc2Cl)o1
< 5%

Look at this compound and give its reported Activity. O=C(O)CCCSc1nnc(-c2ccc(-c3ccccc3)cc2Cl)o1
< 5%

* * *

- TEST: AUC in CD-1 mouse at 15 mg/kg, iv by LC-MS/MS analysis
- Assay type: ADME, organism-based
- CONDITION: in vivo
QUANTITY KIND: AUC (ng·h/mL)
// note: answer is a bare numeric in ng·h/mL

Look at this molecule and give its reported AUC. O=C(O)CCSc1nnc(-c2ccc(Cl)cc2Cl)o1
47400

* * *

- TEST: Half-life in CD-1 mouse at 30 mg/kg, po by LC-MS/MS analysis
- Format: ADME, organism-based
- CONDITION: in vivo
QUANTITY KIND: half-life (h)
// note: answer is a bare numeric in h

[
  {
    "STRUCTURE AS SMILES": "O=C(O)CCCSc1nnc(-c2ccc(C3CC3)cc2Cl)o1",
    "half-life / h": 2.2
  }
]

Please look at the following compound next.
Look at this compound and give its reported half-life. O=C(O)CCSc1nnc(-c2ccc(Cl)cc2Cl)o1
2

* * *

- TEST: Cmax in CD-1 mouse at 20 mg/kg, po by LC-MS/MS analysis
- Format: ADME, organism-based
- Set-up: dose 20 mg/kg, route oral
- CONDITION: in vivo
QUANTITY KIND: Cmax (ng/mL)
// note: answer is a bare numeric in ng/mL

Look at this compound and give its reported Cmax. O=C(O)CCCSc1nnc(-c2ccc(Cl)cc2Cl)o1
23200

* * *

- TEST: AUC in CD-1 mouse at 10 mg/kg, po by LC-MS/MS analysis
- Type: ADME, organism-based
- CONDITION: in vivo
QUANTITY KIND: AUC (ng·h/mL)
// note: answer is a bare numeric in ng·h/mL

Look at this compound and give its reported AUC. O=C(O)CCCSc1nnc(-c2ccc(C3CC3)cc2Cl)o1
1830

* * *

- TEST: Half-life in CD-1 mouse at 3 mg/kg, po by LC-MS/MS analysis
- Type: ADME, organism-based
- CONDITION: in vivo
QUANTITY KIND: half-life

Look at this compound and give its reported half-life. O=C(O)CCCSc1nnc(-c2ccc(C3CC3)cc2Cl)o1
96 min

* * *

- TEST: Oral bioavailability in CD-1 mouse at 30 mg/kg by LC-MS/MS analysis
- Assay type: ADME, organism-based
- CONDITION: in vivo
Recorded bioavailability values for a group of compounds are listed next.
// note: answer is a bare numeric in %

[
  {
    "STRUCTURE AS SMILES": "O=C(O)CCSc1nnc(-c2ccc(Cl)cc2Cl)o1",
    "QUANTITY KIND": "bioavailability",
    "U": "%",
    "MEASURED RESULT": 67
  }
]

Please look at the following compound next.
Look at this compound and give its reported bioavailability. O=C(O)CCCSc1nnc(-c2ccc(C3CC3)cc2Cl)o1
29

These measurements were taken from ChEMBL document CHEMBL4385608.
